- tested_on: EGFRΔ19del/T790M/C797S (Homo sapiens, UniProt P00533, T790M/C797S, form not given)
- Sequence (P00533 with tags, fused parts or gaps DEL746-750/T790M/C797S, form open): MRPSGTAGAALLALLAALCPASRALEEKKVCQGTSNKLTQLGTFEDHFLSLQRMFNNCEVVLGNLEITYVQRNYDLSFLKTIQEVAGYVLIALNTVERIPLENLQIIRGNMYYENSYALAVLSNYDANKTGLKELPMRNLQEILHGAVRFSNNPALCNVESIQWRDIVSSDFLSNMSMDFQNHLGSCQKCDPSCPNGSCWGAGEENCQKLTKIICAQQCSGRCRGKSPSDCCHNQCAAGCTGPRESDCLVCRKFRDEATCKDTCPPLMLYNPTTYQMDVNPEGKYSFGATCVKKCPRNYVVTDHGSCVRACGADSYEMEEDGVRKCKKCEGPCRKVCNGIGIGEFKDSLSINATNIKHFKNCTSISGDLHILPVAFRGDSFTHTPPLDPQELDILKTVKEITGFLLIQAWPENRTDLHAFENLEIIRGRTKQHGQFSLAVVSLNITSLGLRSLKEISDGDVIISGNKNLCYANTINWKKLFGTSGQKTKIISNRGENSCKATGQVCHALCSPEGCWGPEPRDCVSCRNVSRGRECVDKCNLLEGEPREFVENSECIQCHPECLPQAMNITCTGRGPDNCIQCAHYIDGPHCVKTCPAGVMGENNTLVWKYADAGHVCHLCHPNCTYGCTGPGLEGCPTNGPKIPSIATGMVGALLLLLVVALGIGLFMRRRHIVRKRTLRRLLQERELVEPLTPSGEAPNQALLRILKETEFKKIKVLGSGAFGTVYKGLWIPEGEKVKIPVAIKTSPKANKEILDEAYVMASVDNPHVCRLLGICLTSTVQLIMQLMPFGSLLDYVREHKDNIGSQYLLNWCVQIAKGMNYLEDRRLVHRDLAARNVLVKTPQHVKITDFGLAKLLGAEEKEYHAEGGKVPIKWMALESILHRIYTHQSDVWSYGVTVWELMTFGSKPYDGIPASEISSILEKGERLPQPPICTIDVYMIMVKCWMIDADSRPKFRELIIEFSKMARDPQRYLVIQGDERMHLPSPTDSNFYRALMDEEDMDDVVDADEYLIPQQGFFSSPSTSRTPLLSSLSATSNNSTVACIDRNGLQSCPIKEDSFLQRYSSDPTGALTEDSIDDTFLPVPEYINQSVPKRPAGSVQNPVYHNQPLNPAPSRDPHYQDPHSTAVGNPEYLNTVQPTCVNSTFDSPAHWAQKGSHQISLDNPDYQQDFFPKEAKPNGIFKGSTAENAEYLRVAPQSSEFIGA
- test_description: EGFR Δ19del/T790M/C797S kinase test (mobility variation analysis, Caliper EZ Reader)
- cond: kinase enzymatic activity, Table 1
pIC50: −log10 of the molar value.

>  <molecule>
CCc1cc(Nc2ncc(Br)c(Nc3ccc(-c4cccc(C#N)c4)cc3P(C)(C)=O)n2)c(OC)cc1N1CCC(N2CCN(C)CC2)CC1 [Compound 5]

>  <pIC50>
9.40

$$$$
>  <molecule>
CCc1cc(Nc2ncc(Br)c(Nc3ccc(-c4ccco4)cc3P(C)(C)=O)n2)c(OC)cc1N1CCC(N2CCN(C)CC2)CC1 [Compound 16]

>  <pIC50>
9.40

$$$$
>  <molecule>
CCc1cc(Nc2ncc(Br)c(Nc3ccc(-c4cnc(C5CC5)cn4)cc3P(C)(C)=O)n2)c(OC)cc1N1CCC(N2CCN(C)CC2)CC1 [Compound 79]

>  <pIC50>
9.40

$$$$
>  <molecule>
CCc1cc(Nc2ncc(Br)c(Nc3ccc(-c4cnn(C(F)F)n4)cc3P(C)(C)=O)n2)c(OC)cc1N1CCC(N2CCN(C)CC2)CC1 [Compound K-106]

>  <pIC50>
9.30

$$$$
>  <molecule>
CCc1cc(Nc2ncc(Br)c(Nc3ccc(-c4cnn(C)c4)cc3P(C)(C)=O)n2)c(OC)cc1N1CCC(N2CCN(C)CC2)CC1 [Compound 3]

>  <pIC50>
9.52

$$$$
>  <molecule>
CCc1cc(Nc2ncc(Br)c(Nc3ccc(-c4cnn(C)c4)c(C)c3P(C)(C)=O)n2)c(OC)cc1N1CCC(N2CCN(C)CC2)CC1 [Compound K-046]

>  <pIC50>
9.30

$$$$
>  <molecule>
CCc1cc(Nc2ncc(Cl)c(Nc3ccc(-c4cscn4)cc3P(C)(C)=O)n2)c(OC)cc1N1CCC(N2CCN(C)CC2)CC1 [Compound 14]

>  <pIC50>
9.40

$$$$
>  <molecule>
CCc1cc(Nc2ncc(Cl)c(Nc3ccc(-c4cnn5c4CCCC5)cc3P(C)(C)=O)n2)c(OC)cc1N1CCC(N2CCN(C)CC2)CC1 [Compound K-104]

>  <pIC50>
9.40

$$$$
>  <molecule>
CCc1cc(Nc2ncc(Br)c(Nc3ccc(-c4nn(C)c5ncccc45)cc3P(C)(C)=O)n2)c(OC)cc1N1CCC(N2CCN(C)CC2)CC1 [Compound 9]

>  <pIC50>
9.40

$$$$
>  <molecule>
CCc1cc(Nc2ncc(Br)c(Nc3ccc(-c4cn(C)nc4C#N)cc3P(C)(C)=O)n2)c(OC)cc1N1CCC(N2CCN(C)CC2)CC1 [Compound 64]

>  <pIC50>
9.10

$$$$
>  <molecule>
CCc1cc(Nc2ncc(Cl)c(Nc3ccc(-c4cnccc4OC)cc3P(C)(C)=O)n2)c(OC)cc1N1CCC(N2CCN(C)CC2)CC1 [Compound 53]

>  <pIC50>
9.22

$$$$
>  <molecule>
CCc1cc(Nc2ncc(Br)c(Nc3ccc(-c4ncnn4C)cc3P(C)(C)=O)n2)c(OC)cc1N1CCC(N2CCN(C)CC2)CC1 [Compound 62]

>  <pIC50>
9.10

$$$$
>  <molecule>
CCc1cc(Nc2ncc(Br)c(Nc3ccc(-c4cnc(C)cn4)cc3P(C)(C)=O)n2)c(OC)cc1N1CCC(N2CCN(C)CC2)CC1 [Compound 80]

>  <pIC50>
9.70

$$$$
>  <molecule>
CCc1cc(Nc2ncc(Cl)c(Nc3ccc(-c4nn(C)cc4C#N)cc3P(C)(C)=O)n2)c(OC)cc1N1CCC(N2CCN(C)CC2)CC1 [Compound 57]

>  <pIC50>
9.40

$$$$
>  <molecule>
CCc1cc(Nc2ncc(Br)c(Nc3ccc(-c4ccc(C#N)cc4)cc3P(C)(C)=O)n2)c(OC)cc1N1CCC(N2CCN(C)CC2)CC1 [Compound 10]

>  <pIC50>
9.22

$$$$
>  <molecule>
CCc1cc(Nc2ncc(Br)c(Nc3ccc(-c4cnn(C)c4)cc3P(C)(C)=O)n2)c(OC)cc1N1CCC(N(C)C)CC1 [Compound K-044]

>  <pIC50>
9.52

$$$$

Source of measurements: patent US20220402948A1
